Tested target: T1, CD123 (Homo sapiens (Human), UniProt P26951 19-305, limits assumed)
T1 construct: The CD123 construct used in the ELISA is not described; also called CD123-Signal
T1 sequence: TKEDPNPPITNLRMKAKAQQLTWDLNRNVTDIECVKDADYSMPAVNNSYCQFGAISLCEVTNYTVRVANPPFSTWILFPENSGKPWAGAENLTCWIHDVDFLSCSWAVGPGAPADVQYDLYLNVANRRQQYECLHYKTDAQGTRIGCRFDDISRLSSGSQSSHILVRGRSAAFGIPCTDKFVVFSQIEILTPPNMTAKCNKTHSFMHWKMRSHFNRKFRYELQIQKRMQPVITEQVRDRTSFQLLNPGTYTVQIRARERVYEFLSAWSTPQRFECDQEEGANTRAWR
Procedure details: ELISA
Design: unit not given here
Quantity: ELISA_avg
Just the number.

// known answers, use as guide
# Binder, Reported result
records = [
    ("D domain of SEQ ID NO: 519 (designed binder) MGSWSFFKDDLAEIKYFLEALGGSEAELAMFEQTIAEFEYDLQDYKGKGNPEVEALRKEAAAIRDELQAYRHN", 10.1),
    ("D domain of SEQ ID NO: 636 (designed binder) MGSWVEFMDRLEAIEERLSALGGSEAELAFFEWEIAEFEEHLQVYKGKGNPEVEALEWEALAITEELAAYRHN", 4),
    ("D domain of SEQ ID NO: 470 (designed binder) MGSWWLFKDDLAEIKYWLEALGGSEAELAFFEDDIAEFERGLQIYKGKGNPEVEALRKEAAAIRDELQAYRHN", 3.3),
    ("D domain of SEQ ID NO: 526 (designed binder) MGSWQDFKEDLAWIKYELEALGGSEAELAFFEYDIAIFENNLQHYKGKGNPEVEALRKEAAAIRDELQAYRHN", 3.2),
    ("D domain of SEQ ID NO: 542 (designed binder) MGSWYQFKTELAWIKDDLEALGGSEAELAWFEWVIADFEDDLQFYKGKGNPEVEALRKEAAAIRDELQAYRHN", 6.6),
    ("D domain of SEQ ID NO: 540 (designed binder) MGSWDFFKEELAEIKHYLEALGGSEAELAFFEFWIADFEQDLQEYKGKGNPEVEALRKEAAAIRDELQAYRHN", 3.7),
]

What ELISA_avg value was documented for this binder, D domain of SEQ ID NO: 358 (designed binder) MGSWTEFSIRLEAIYDRLVALGGSEAELAAFEKEIAAFESELQAYKGKGNPEVEVLRTYAANIRHELQAYRHN ?
11.9

Would you mind doing D domain of SEQ ID NO: 369 (designed binder) MGSWEEFYDRLEAIYNRLGALGGSEAELAAFEKEIAAFESELQAYKGKGNPEVEVLREYAADIREMLQAYRHN as well?
18.6

Now give it for D domain of SEQ ID NO: 528 (designed binder) MGSWYDFKEDLADIKWMLEALGGSEAELAEFENVIAYFENDLQEYKGKGNPEVEALRKEAAAIRDELQAYRHN too.
8
